Taken from patent US9573961B2.

target: Kir1.1 (ROMK1) (Homo sapiens (Human)); experiment: Electrophysiology Assay (whole cell voltage clamp, IonWorks Quattro); assay type: cell-based; conditions: Chinese hamster ovary cells stably expressing Kir1.1; block during voltage step to 0 mV; read-out: Electrophysiology IC50
Sequence (P48048 whole entry): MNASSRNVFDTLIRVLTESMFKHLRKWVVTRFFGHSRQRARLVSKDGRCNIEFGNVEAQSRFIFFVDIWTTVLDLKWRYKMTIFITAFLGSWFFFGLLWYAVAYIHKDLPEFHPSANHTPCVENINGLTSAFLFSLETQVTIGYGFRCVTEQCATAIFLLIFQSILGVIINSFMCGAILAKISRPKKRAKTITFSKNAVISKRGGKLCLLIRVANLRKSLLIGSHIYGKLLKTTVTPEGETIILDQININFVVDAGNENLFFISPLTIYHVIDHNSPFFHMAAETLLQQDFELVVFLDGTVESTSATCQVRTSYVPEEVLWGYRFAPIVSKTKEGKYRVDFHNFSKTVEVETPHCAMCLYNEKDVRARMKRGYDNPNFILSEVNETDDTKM
quantity_measured: IC50 (nM)
Give just the number in nM; leave the unit off.

# IC50 lookup, item `Cc1c([C@@H]2CN3CCN(C(=O)Cc4c(F)cc(-n5cnnn5)cc4F)C[C@H]3CO2)ccc(F)c1C#N` 70

What does the data say about its IC50? Entry: `Cc1c([C@@H]2CN3CCN(C(=O)Cc4ccc(-n5cnnn5)cc4)C[C@H]3CN2)ccc(F)c1C#N` 180

Reported IC50 for `Cc1c([C@@H]2CN3CCN(C(=O)Cc4cccc(-n5cnnn5)c4)C[C@@H]3CO2)ccc(F)c1C#N` : what is it? 60

Suppose we examine the compound Cc1c([C@H]2CN3CCN(C(=O)C4CCc5cc(-n6cnnn6)ccc54)C[C@H]3CO2)ccc(F)c1C#N (single isomer, unassigned) ; what IC50 value has been reported? 140

Reported IC50 for O=C1OCc2cc([C@H]3CN4CCN(C(=O)C5CCc6cc(-n7cnnn7)ccc65)C[C@H]4CO3)ccc21 (some centres unmarked) : what is it? 340

For Cc1c([C@H]2CN3CCN(C(=O)C4CCCc5cc(-n6cnnn6)ccc54)C[C@H]3CO2)ccc2c1COC2=O (single isomer, unassigned) , what is its reported IC50? 460

Returns the measured IC50 for the input compound. Input: Cc1c([C@@H]2CN3CCN(C(=O)C4CCc5cc(-n6cnnn6)ccc54)C[C@H]3CO2)ccc(F)c1C#N (mixture of isomers) [Example 2A] 140

# input compound: COc1cc([C@H]2CN3CCN(C(=O)C4CCc5cc(-n6cnnn6)ccc54)C[C@H]3CO2)ccc1C#N (mixture of isomers) ; wanted: its IC50 490
